- Target: Regulator of G-protein signaling 19 (Homo sapiens) (UniProt P49795)
- Sequence (P49795 whole entry, looked up): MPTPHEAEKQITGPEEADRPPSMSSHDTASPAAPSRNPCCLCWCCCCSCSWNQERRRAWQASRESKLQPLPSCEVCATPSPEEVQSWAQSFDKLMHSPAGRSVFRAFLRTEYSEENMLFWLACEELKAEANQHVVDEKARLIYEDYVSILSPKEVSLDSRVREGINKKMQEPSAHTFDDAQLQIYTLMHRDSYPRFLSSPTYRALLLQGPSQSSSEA
- Assay remarks: RGS19-Gαo interaction regulators, potency – biochemical, multiplexed bead flow cytometry, dose response (AID 1884)
- Condition description: bead-based flow cytometry RGS19-Galphao binding; measured here: Ki for RGS19-Galphao
Quantity measured: pKi
// pKi: -log10(molar conc.)

Asked: Fill in the blank: the reported pKi of CN(C)c1ncc(C2=C(Cl)C(=O)C(N3CCCC3)=C(Cl)C2=O)s1 is ____.
Given back: 6.10

Asked: Fill in the blank: the reported pKi of NS(=O)(=O)c1ccc(CNC(=O)/C=C/c2ccco2)cc1 is ____.
Given back: 4.97

Asked: Fill in the blank: the reported pKi of CC(=O)OCCCNc1cc(Sc2nc3ccccc3s2)c2nonc2c1[N+](=O)[O-] is ____.
Given back: 6.04

Asked: Fill in the blank: the reported pKi of COc1ccc(C2=CC(=O)C=CC2=O)cc1 is ____.
Given back: 5.74

Asked: Fill in the blank: the reported pKi of COc1ccccc1-n1c(-c2cc(-c3ccco3)[nH]n2)n[nH]c1=S is ____.
Given back: 4.88

Asked: Fill in the blank: the reported pKi of CCN(CC)S(=O)(=O)c1cccc(-c2n[nH]c(=S)n2/N=C/c2ccc(C(=O)OC)cc2)c1 is ____.
Given back: 5.24

Asked: Fill in the blank: the reported pKi of O=c1c2ccccc2sn1-c1ccc(S(=O)(=O)N2CCCC2)cc1 is ____.
Given back: 6.02

Asked: Fill in the blank: the reported pKi of Cc1[nH]n(-c2ccccc2)c(=S)c1C=Nc1cccc([N+](=O)[O-])c1 is ____.
Given back: 5.80

Asked: Fill in the blank: the reported pKi of O=C(OCC1O[C@@H](OC(=O)c2cc(O)c(O)c(O)c2)[C@@H](OC(=O)c2cc(O)c(O)c(O)c2)[C@@H](OC(=O)c2cc(O)c(O)c(O)c2)[C@@H]1OC(=O)c1cc(O)c(O)c(O)c1)c1cc(O)c(O)c(O)c1 (some centres undefined) is ____.
Given back: 5.39

Asked: Fill in the blank: the reported pKi of CN(C)S(=O)(=O)c1cccc(-n2sc3ccccc3c2=O)c1 is ____.
Given back: 6.82

Asked: Fill in the blank: the reported pKi of O=c1c2ccccc2sn1-c1cc(S(=O)(=O)N2CCOCC2)ccc1N1CCOCC1 is ____.
Given back: 6.96

Asked: Fill in the blank: the reported pKi of CCC(=O)NC(c1ccc(C)cc1)c1cc([N+](=O)[O-])c2cccnc2c1O (centres undefined) is ____.
Given back: 5.68

Asked: Fill in the blank: the reported pKi of O=C(Cc1csc(N2CCOCC2)n1)N/N=C/c1ccc(O)c(O)c1O is ____.
Given back: 5.34

Asked: Fill in the blank: the reported pKi of Cc1ccc(-n2sc3ccccc3c2=O)cc1S(=O)(=O)N1CCCCC1 is ____.
Given back: 6.24

Asked: Fill in the blank: the reported pKi of O=C(COc1ccccc1C(=O)N/N=C\c1ccc(O)c(O)c1)N/N=C/c1ccc(O)c(O)c1 is ____.
Given back: 5.40

Asked: Fill in the blank: the reported pKi of O=c1c2ccccc2sn1-c1ccccc1 is ____.
Given back: 6.52

Asked: Fill in the blank: the reported pKi of CC(=O)N(O)CCCCCNC(=O)CCC(=O)N(O)CCCCCNC(=O)CCC(=O)N(O)CCCCCN is ____.
Given back: 5.42

Asked: Fill in the blank: the reported pKi of CCC(=O)NC1=C(Cl)C(=O)C(NC(=O)CC)=C(Cl)C1=O is ____.
Given back: 6.12

Asked: Fill in the blank: the reported pKi of COC(=O)c1c(-c2ccc(C(C)(C)C)cc2)csc1NC(=O)C1C2CCC(O2)C1C(=O)O (centres undefined) is ____.
Given back: 5.12

Asked: Fill in the blank: the reported pKi of Cc1ccccc1-n1sc2cc(F)ccc2c1=O is ____.
Given back: 6.37

Asked: Fill in the blank: the reported pKi of CC1(C)OC(=O)C(=Cc2ccc(-c3ccc(S(N)(=O)=O)cc3)o2)C(=O)O1 is ____.
Given back: 5.54

Asked: Fill in the blank: the reported pKi of Cc1cccc(N2CCN(C(=O)Cn3sc4nc(C)cc(C)c4c3=O)CC2C)c1 (centres undefined) is ____.
Given back: 5.90

Asked: Fill in the blank: the reported pKi of CCCNC(=O)Cn1sc2nc(C)cc(C)c2c1=O is ____.
Given back: 6.03

Asked: Fill in the blank: the reported pKi of O=C(O)C[C@@H]1C(=O)O[C@@H]2C(COC(=O)c3cc(O)c(O)c(O)c3)O[C@@H](OC(=O)c3cc(O)c(O)c(O)c3)[C@@H](OC(=O)c3cc(O)c(O)c4c3[C@H]1[C@H](O)C(=O)O4)[C@H]2OC(=O)c1cc(O)c(O)c(O)c1 (some centres undefined) is ____.
Given back: 5.27

Asked: Fill in the blank: the reported pKi of Cc1cc(C)c2c(=O)n(CC(=O)Nc3cccc(F)c3)sc2n1 is ____.
Given back: 5.94

Asked: Fill in the blank: the reported pKi of COCCCNC(=O)c1ccc2c3c(onc13)-c1ccccc1C2=O is ____.
Given back: 5.44

Asked: Fill in the blank: the reported pKi of O=c1c2ccccc2sn1-c1cc(S(=O)(=O)N2CCOCC2)ccc1N1CCCC1 is ____.
Given back: 6.36

Asked: Fill in the blank: the reported pKi of CC(NC(=O)c1sc2cc([N+](=O)[O-])ccc2c1Cl)C(C)(C)C (centres undefined) is ____.
Given back: 6.02

Asked: Fill in the blank: the reported pKi of O=C(O[C@@H]1OC2COC(=O)c3cc(O)c(O)c(O)c3-c3c(cc(O)c(O)c3O)C(=O)O[C@@H]([C@H]1O)[C@@H]2O)c1cc(O)c(O)c(O)c1 is ____.
Given back: 5.53

Asked: Fill in the blank: the reported pKi of CN1CCN(C2=C(Cl)C(=O)C(c3cnc(N4CCCCC4)s3)=C(Cl)C2=O)CC1 is ____.
Given back: 8.00

Asked: Fill in the blank: the reported pKi of CCOC(=O)C1CCCN(C(=O)Cn2sc3nc(C)cc(C)c3c2=O)C1 (centres undefined) is ____.
Given back: 5.68

Asked: Fill in the blank: the reported pKi of Cc1cc(Cl)ccc1N=c1ssnc1Cl is ____.
Given back: 5.38

Asked: Fill in the blank: the reported pKi of CN=c1scc(C)n1/N=C/c1ccc(O)c(O)c1O is ____.
Given back: 5.58

Asked: Fill in the blank: the reported pKi of C/C(=N/NC(=O)c1cc(O)c(O)c(O)c1)c1ccc([N+](=O)[O-])cc1 is ____.
Given back: 4.73

Asked: Fill in the blank: the reported pKi of Cc1cc(C)c2c(=O)n(CC(=O)Nc3ccc(Cl)cc3)sc2n1 is ____.
Given back: 5.84

Asked: Fill in the blank: the reported pKi of O=C1C(Cl)=C(N2CCCCC2)C(=O)C(Cl)=C1c1cnc(N2CCCCC2)s1 is ____.
Given back: 6.20

Asked: Fill in the blank: the reported pKi of NS(=O)(=O)c1ccc(N/N=C/c2ccc(O)c(O)c2O)c([N+](=O)[O-])c1 is ____.
Given back: 6.20

Asked: Fill in the blank: the reported pKi of CCc1c(C(=O)Nc2ccccc2)c(C)[nH]c(=S)c1C#N is ____.
Given back: 4.98

Asked: Fill in the blank: the reported pKi of CN(C)[C@@H]1C(=O)C(C(=O)NCN2CCCC2)=C(O)[C@@]2(O)C(=O)C3=C(O)c4c(O)cccc4[C@@](C)(O)C3CC12 (some centres undefined) is ____.
Given back: 5.15
